- System: Bacteroides thetaiotaomicron
- test.method.notes: growth AUC relative to DMSO control (median of replicates) (fraction); higher = more growth (less inhibition), active = hit call of the paper
- condition.notes: 20 µM; 24 h
measured.endpoint: growth AUC
Give only the figure.

Worked examples, 3 compounds total:
O.O=C(Nc1ccc([N+](=O)[O-])cc1Cl)c1cc(Cl)ccc1O : 0.00758
CC(C)N(C(=O)C(=O)O)c1ccccc1 : 1.01
COc1cccc(N(C)C(=S)Oc2cccc(C(C)(C)C)c2)n1 : 1.01

In plain terms, CSc1nc(NC2CC2)nc(NC(C)(C)C)n1 has a documented growth AUC of 0.895

* * *

- System: Parabacteroides merdae
- test.method.notes: growth AUC relative to DMSO control (median of replicates) (fraction); higher = more growth (less inhibition), active = hit call of the paper
- condition.notes: 20 µM; 24 h
measured.endpoint: growth AUC
Give only the figure.

Worked examples, 8 compounds total:
COC(=O)CCCOc1ccc(Cl)cc1Cl : 0.97
CCCCCCCCCC[N+](C)(C)Cc1ccccc1.[Cl-] : 0.91
CCNc1nc(N)[nH]c(=O)n1 : 0.995
O=C(Nc1ccc(F)cc1-c1ccc(Cl)c(Cl)c1)c1cn[nH]c1C(F)F : 0.779
Cc1[nH]n(C)c(=O)c1C(=O)c1ccc(C(F)(F)F)cc1S(C)(=O)=O : 0.974
CC(C)N(C(=O)CS(=O)(=O)[O-])c1ccc(F)cc1.[Na+] : 0.995
COc1nc(NC(=O)NS(=O)(=O)c2ccccc2C(F)(F)F)nc(C(F)(F)F)n1 : 0.964
CN(C)C(N)=O : 1.01

Next item in the queue.
Here COC(=O)C(C)Oc1ccc(Oc2ccc(C(F)(F)F)cn2)cc1 (centres undefined) was tested on Parabacteroides merdae, and its growth AUC came to 0.963

* * *

This section presents compounds with their documented growth AUC values.
- Test system: Bacteroides thetaiotaomicron
- test.method.notes: growth AUC relative to DMSO control (median of replicates) (fraction); higher = more growth (less inhibition), active = hit call of the paper
- condition.notes: 20 µM; 24 h
Give only the figure.

Worked examples, 3 compounds total:
CC(C)CCCCCCc1ccc(O)cc1 : 0.992
CC(C)OC(=O)[C@@H](C)N(C(=O)c1ccccc1)c1ccc(F)c(Cl)c1 : 0.984
Cc1cccc(C)c1O : 1.02

In plain terms, CON(C(=O)c1cc(C)oc1C)C1CCCCC1 has a documented growth AUC of 0.972

In plain terms, CC(C)(c1ccc(O)cc1)c1ccc(O)cc1 has a documented growth AUC of 1.02

In plain terms, COc1nc(NC(=O)NS(=O)(=O)c2ccccc2C(F)(F)F)nc(C(F)(F)F)n1 has a documented growth AUC of 0.974

* * *

- System: Lactobacillus paracasei
- test.method.notes: growth AUC relative to DMSO control (median of replicates) (fraction); higher = more growth (less inhibition), active = hit call of the paper
- condition.notes: 20 µM; 24 h
Binning of growth AUC into classes: c1 = under 0.9, c2 = from 0.9 up to 1, c3 = 1 and over

Q. Could you place O.O.O=[N+]([O-])c1ccc([O-])cc1.[Na+] in its proper category? Many thanks.
A. c3

Q. Could you place O=C(Nc1ccc(Cl)cc1C(O)c1ccccc1)c1ccncc1 (stereo not drawn) in its proper category? Many thanks.
A. c2

Q. Could you place CCS(=O)(=O)c1nnc(N(C)C(=O)NC)s1 in its proper category? Many thanks.
A. c1

Q. Could you place Cc1[nH]n(C)c(=O)c1C(=O)c1ccc(C(F)(F)F)cc1S(C)(=O)=O in its proper category? Many thanks.
A. c3

Q. Could you place CCc1ccc(O)cc1 in its proper category? Many thanks.
A. c1

* * *

- Tested on: Escherichia coli IAI1
- test.method.notes: growth AUC relative to DMSO control (median of replicates) (fraction); higher = more growth (less inhibition), active = hit call of the paper
- condition.notes: 20 µM; 24 h
measured.endpoint: growth AUC
Give only the figure.

Worked examples, 8 compounds total:
CC1=C(c2ccccc2)C(=O)N(C(C)(C)c2cc(Cl)cc(Cl)c2)CO1 : 0.987
CCN(CC)c1nc(C)cc(=O)[nH]1 : 0.998
CCSC(=O)N(CC)CC : 0.994
CCc1cccc(C)c1NC(=O)C(=O)O : 1
CSC(=O)c1cccc2nnsc12 : 0.981
CCOCN(C(=O)C(=O)O)c1c(C)cccc1CC : 0.996
COc1cc(OC)nc(Sc2cccc3c2C(=O)OC3C)n1 (stereo not given) : 0.999
CC1(C)C(=O)Oc2ccc(OS(C)(=O)=O)cc21 : 1.01

In plain terms, Oc1ccc2ccccc2c1N=Nc1ccccc1 has a documented growth AUC of 1.01

In plain terms, CCc1cccc(C)c1NC(=O)CS(=O)(=O)[O-].[Na+] has a documented growth AUC of 0.983

In plain terms, CC(C)OC(=O)[C@@H](C)N(C(=O)c1ccccc1)c1ccc(F)c(Cl)c1 has a documented growth AUC of 1

In plain terms, Cc1cccc(C)c1N(C(=O)CCl)C1CCOC1=O (stereo not given) has a documented growth AUC of 1.01

* * *

- Test system: Bacteroides dorei
- test.method.notes: growth AUC relative to DMSO control (median of replicates) (fraction); higher = more growth (less inhibition), active = hit call of the paper
- condition.notes: 20 µM; 24 h
This section presents compounds with their documented growth AUC values.
Give only the figure.

Worked examples, 8 compounds total:
c1ccc(CNc2ncnc3nc[nH]c23)cc1 : 0.983
Oc1cccc2ccccc12 : 0.987
CC1(C)C(C(=O)OC(C#N)c2cccc(Oc3ccccc3)c2)C1C(Br)C(Br)(Br)Br (centres undefined) : 0.995
Br[C@@H]1CC[C@H](Br)[C@H](Br)CC[C@@H](Br)[C@@H](Br)CC[C@H]1Br : 0.999
Cc1cc(C2CC2)nc(Nc2ccc(O)cc2)n1 : 0.994
CCOCOc1ccc(C(=O)Nc2cccc(Cl)c2Cl)cc1 : 0.972
CC(=O)CC(c1ccccc1)c1c(O)c2ccccc2oc1=O (centres undefined) : 1.02
CCNc1nc(Cl)nc(N(CC)CC)n1 : 0.986

Next item in the queue.
Here COc1cc(OC)nc(NC(=O)NS(=O)(=O)N(C)S(C)(=O)=O)n1 was tested on Bacteroides dorei, and its growth AUC came to 1.01

* * *

This section presents molecules with their documented growth AUC values.
- System: Parabacteroides merdae
- test.method.notes: growth AUC relative to DMSO control (median of replicates) (fraction); higher = more growth (less inhibition), active = hit call of the paper
- condition.notes: 20 µM; 24 h
Give only the figure.

Worked examples, 5 molecules total:
CCOCCOC(=O)C(C)Oc1ccc(Oc2ncc(C(F)(F)F)cc2Cl)cc1 (stereo not drawn) : 0.991
CCCN(CCOc1c(Cl)cc(Cl)cc1Cl)C(=O)NC=O : 0.991
CCCCOC(=O)COc1ccc(Cl)cc1Cl : 0.979
O=C=NC1CCC(CC2CCC(N=C=O)CC2)CC1 (stereo not drawn) : 1.02
CC(C)OC(=O)[C@@H](C)N(C(=O)c1ccccc1)c1ccc(F)c(Cl)c1 : 1.01

In plain terms, CC(C)N(C)S(=O)(=O)NC(=O)c1cc(-n2c(=O)cc(C(F)(F)F)[nH]c2=O)c(F)cc1Cl has a documented growth AUC of 1.02

In plain terms, NC(=O)Cc1cccc2ccccc12 has a documented growth AUC of 1.01

In plain terms, O=c1cccc2n1CCn1c-2cccc1=O has a documented growth AUC of 1.01

* * *

This section presents molecules with their documented growth AUC values.
- Test system: Parabacteroides distasonis
- test.method.notes: growth AUC relative to DMSO control (median of replicates) (fraction); higher = more growth (less inhibition), active = hit call of the paper
- condition.notes: 20 µM; 24 h
Give only the figure.

Worked examples, 6 molecules total:
COC(=O)c1csc(C)c1S(=O)(=O)NC(=O)n1nc(OC)n(C)c1=O : 0.801
NC(=O)c1nn(-c2c(Cl)cc(C(F)(F)F)cc2Cl)c(N)c1S(=O)C(F)(F)F (centres undefined) : 1.02
CC(C)(C)C(O)/C(=C\c1ccc(Cl)cc1)n1cncn1 (centres undefined) : 0.959
CCc1ccc(O)cc1 : 1.02
CN(C)C(=O)Nc1ccc(Oc2ccc(Cl)cc2)cc1 : 0.937
O=C(O)COc1cccc(Cl)c1Cl : 0.994

In plain terms, CCc1cccc(CC)c1N(COC)C(=O)C(=O)O has a documented growth AUC of 1.02

In plain terms, O=c1oc(-c2ccccc2)nc2ccccc12 has a documented growth AUC of 1.05

In plain terms, O=C(O)CNC(=O)c1cnccc1C(F)(F)F has a documented growth AUC of 1.03

* * *

This section presents compounds with their documented growth AUC values.
- Tested on: Odoribacter splanchnicus
- test.method.notes: growth AUC relative to DMSO control (median of replicates) (fraction); higher = more growth (less inhibition), active = hit call of the paper
- condition.notes: 20 µM; 24 h

O=C(O)c1cccc2nnsc12 : 1.03 (inactive)
CN(C)C(=O)Nc1ccccc1 : 1.04 (inactive)
COc1nc(N)nc(C(F)(F)F)n1 : 1.01 (inactive)
O=[N+]([O-])c1ccc(O)cc1 : 1.01 (inactive)
COC(=O)c1ccc(C)cc1C1=NC(C)(C(C)C)C(=O)N1 (racemic) : 1.07 (inactive)

In plain terms, COC1CCC2(CC1)NC(=O)C(c1cc(C)ccc1C)=C2O (stereo not drawn) has a documented growth AUC of 1.05 (inactive)
